Please go through the items and note down their melting point.

Previously resolved entries follow.
>  <COMPOUND>
O=c1c2cc(F)c(F)cc2nc(CSc2ncnc3[nH]cnc23)n1-c1ccccc1Cl

>  <melting point>
208 °C

$$$$
>  <COMPOUND>
CCOC(=O)C1=C(N=CN(C)C)NC(C)=C(C(=O)OC(C)C)C1c1ccccc1Cl (configuration not stated)

>  <melting point>
138 °C

$$$$
>  <COMPOUND>
Cc1ccc(S(=O)(=O)OCCN2Cc3ccccc3C2=O)cc1

>  <melting point>
75 °C

$$$$
>  <COMPOUND>
CC1(C)COc2cc3ccccc3c(=O)n21

>  <melting point>
91 to 92 °C

$$$$
>  <COMPOUND>
Cn1cncc1S(=O)(=O)O

>  <melting point>
286 to 287 °C

$$$$

List reported melting point for each of these compounds:
1. O=C1C2CC(CN(Cc3ccccc3)C2)CN1Cc1ccccc1 (configuration not stated)
2. CC(C)NCC(O)c1cc(Cl)c(N)c(C(F)(F)F)c1 (configuration not stated)
3. N#Cc1ccc(CN2CCC(N3C(=O)Nc4ccccc4C3c3ccccc3)CC2)cc1 (configuration not stated)
4. CCCCCCCCN1C(=O)NC2(CC(C)(CC)NC(C)(CC)C2C)C1=O (configuration not stated)
5. N#CC(c1ccccc1)(c1ccccc1)[C@H]1CCCN(CCc2ccc3c(c2)CCO3)C1
6. CC(C)Cn1cc(F)c(NCc2ccccc2F)nc1=O

["82.5 to 83.5 °C", "104 to 106 °C", "189 to 192 °C", "65 to 67 °C", "137 to 140 °C", "118 to 119 °C"]

List reported melting point for each of these compounds:
1. N#Cc1ccc(Oc2ccc(S(=O)(=O)NCc3ccc4ccccc4n3)cc2)c(Cl)c1
2. COC(=O)c1cc2cc(Br)ccc2nc1C
3. CC(C)(Cn1c(CO)nc2c(N)nc3ccccc3c21)CS(C)(=O)=O
4. COc1cc(Oc2cccc(C(F)(F)F)c2)nc(C(=O)NN=C(C)C)c1

1: 83 to 86 °C; 2: 150 to 151 °C; 3: 230 to 232 °C; 4: 134 to 136 °C

List reported melting point for each of these compounds:
1. O=S1c2ccccc2Sc2ccc(-c3nnn[nH]3)cc21 (configuration not stated)
2. C=C(Br)c1cc(O)cc2nc(-c3ccc(O)cc3F)oc12
3. CC(=O)c1ccc(S(=O)(=O)Nc2ccc(Cl)cn2)cc1
4. Cc1ccc2c(c1)S(=O)(=O)N=C(NC(C)C)N2

200 to 204 °C
235 to 237 °C
181 to 182 °C
266 to 268 °C

List reported melting point for each of these compounds:
1. O=C(c1cc(=O)c2cc3[nH]c(=O)oc3cc2[nH]1)N1CCC(Cc2ccccc2)CC1
2. Oc1ccc(NCCCCCCCBr)cc1
3. Nc1c2c(nc3ccc(F)cc13)-c1ccccc1CC2

215 °C
121 to 123 °C
158 to 159 °C

---

Please go through the items and note down their melting point.

List reported melting point for each of these molecules:
1. Nc1ccc(S(=O)(=O)Nn2cc(-c3ccccc3)c3ccccc32)cc1
2. NC(=O)N1C(=O)C(=C(OC(=O)c2ccccn2)c2cccs2)c2cc(F)c(Cl)cc21
3. Cc1ccc([N+](=O)[O-])c(C)c1C(=O)c1c[nH]cn1
4. CN1Cc2c(Cl)cccc2SCC1=O
5. O=S(=O)(Nc1cccc2cc(-c3nccs3)[nH]c12)c1cccs1

["176 to 177 °C", "184 to 185 °C", "245 to 249 °C", "122 to 125 °C", "164 to 165 °C"]

List reported melting point for each of these molecules:
1. CCOC(=O)c1cn(C2CC2)c2c(F)c(N3CC(OS(C)(=O)=O)C3)c(F)cc2c1=O
2. CC1CC(=O)N(c2ccc(Cl)cc2)C(=O)C1
3. N#Cc1c2ccccc2c(-c2cc(Br)c(O[C@@H](Cc3ccccc3)C(=O)O)c(Br)c2)c2c1sc1ccccc12
4. CC(C)C[C@@H](C(=O)OC(C)(C)C)N1C(=O)NC(C(F)(F)F)(C(F)(F)F)C1=O
5. COc1ccc2c(c1)c(Cc1cc(=O)n(-c3cc(Cl)cc(Cl)c3)[nH]1)c(C)n2C(=O)c1ccc(Cl)cc1

191 to 193 °C
163 to 164 °C
176 to 178 °C
105 to 106 °C
104 to 105 °C

---

READOUT NAME: melting point

Previously resolved entries follow.
>  <COMPOUND>
CC(=O)N(C(C)=O)n1c(=O)[nH]c2ccccc2c1=O

>  <melting point>
210 °C

$$$$
>  <COMPOUND>
CC(C)c1cc2ncnn2nc1OCCOCCN1CCN(C(c2ccccc2)c2ccccc2)CC1

>  <melting point>
119 to 120 °C

$$$$
>  <COMPOUND>
CC1Cc2cc(Br)ccc2C1=O (stereo not given)

>  <melting point>
55 °C

$$$$
>  <COMPOUND>
OCCc1c[nH]c2cc(-c3cc(Nc4ccc(N5CCOCC5)cn4)c4nccn4c3)ccc12

>  <melting point>
159 to 161 °C

$$$$
>  <COMPOUND>
Cc1cnc(Cn2ncc(-c3ccc(S(C)(=O)=O)cc3)c(-c3ccc(F)cc3)c2=O)s1

>  <melting point>
114 to 116 °C

$$$$
>  <COMPOUND>
Cc1cnc(C(=O)c2[nH]c3ccc(Cl)cc3c2CC(=O)O)s1

>  <melting point>
231 to 233 °C

$$$$

List reported melting point for each of these compounds:
1. CCCN(c1nc(-c2ccc(OC)cc2Cl)c(C)s1)c1cc(C(=O)O)ccc1OC
2. CS(=O)(=O)c1ccc(-c2ccccc2-c2ccc(Cl)cc2)cc1
3. CCCCOc1ccc(Nc2c([N+](=O)[O-])ccc(Cl)c2C(=O)O)cc1

["109 °C", "180 to 181 °C", "166 to 169 °C"]

List reported melting point for each of these compounds:
1. CCCCCCCC(=O)N(C)Cc1cccc(-c2ccc(Nc3ccccc3C(=O)O)cc2)c1
2. OCCOCCOCCN1CCC(=C2c3ccccc3CC(O)c3sccc32)CC1 (stereo not given)
3. N#CC(Cc1c(Cl)cccc1Cl)C(=O)O (stereo not given)
4. CCc1cc(C(C)=O)c(O)cc1OCCCCCN

["45 °C", "110 to 113 °C", "106 to 108 °C", "75 to 76 °C"]

List reported melting point for each of these compounds:
1. CCCn1c(=O)[nH]c2ccc(C(=O)c3nc(-c4cccc(C(=O)O)c4)c4ccccn34)cc2c1=O
2. Nc1nc2c(ncn2CCC(CO)CCl)c(=O)[nH]1 (stereo not given)
3. CC(C)(C)OC(=O)N1C[C@@H](C=O)CC1=O
4. N#Cc1c(-c2ccc(F)cc2)cc2c3c1ccn3C(=O)CNC2

["365 °C", "273 to 275 °C", "120 to 122 °C", "248 to 250 °C"]

List reported melting point for each of these compounds:
1. O=C(O)CCc1c([N+](=O)[O-])cc(O)c(O)c1[N+](=O)[O-]
2. CC(C)(C)C1CCN(CCCC(=O)c2ccc3c(c2)-c2ccc(C(=O)CCCN4CCC(C(C)(C)C)CC4)c4cccc-3c24)CC1

1: 162 to 165 °C; 2: 150 to 152 °C

# input compound: O=C(Nc1cccc(C(F)(F)F)c1)c1cccnc1NCc1ccncc1 ; wanted: its melting point
152 to 153 °C

---

Please go through the items and note down their melting point.

>  <COMPOUND>
CC(C)c1ccc(C(=O)N2CCCCC2)c(NS(=O)(=O)c2cccc3nsnc23)c1

>  <READOUT NAME>
melting point

>  <RESULT>
125 to 127 °C

$$$$
>  <COMPOUND>
C=CC(=O)OCCCOc1ccc(-c2ccc(C#N)cc2)cc1

>  <READOUT NAME>
melting point

>  <RESULT>
70 °C

$$$$
>  <COMPOUND>
O=C(O)CCC(=NO)c1ccc(-c2cccc(F)c2)cc1

>  <READOUT NAME>
melting point

>  <RESULT>
155 to 157 °C

$$$$
>  <COMPOUND>
FC(F)(F)c1cc(-c2ccc(Cl)cc2)[nH]c1C(F)(F)F

>  <READOUT NAME>
melting point

>  <RESULT>
72 to 73 °C

$$$$
>  <COMPOUND>
COc1c(C)c(C)c(OC)c(C(O)CN)c1C (stereo unspecified)

>  <READOUT NAME>
melting point

>  <RESULT>
110 to 112 °C

$$$$

List reported melting point for each of these compounds:
1. C[C@@H]1OC(=O)C[C@H]2O[C@@H]12
2. CC#CCCn1ncc2c(N)c3c(nc21)CN(CCC)C3=O
3. O=C(O)C1=Cc2cc(Cl)c(-c3ccccc3)cc2OC1C(F)(F)F (stereo unspecified)
4. CC(C)(C)C(Cl)=CC(=O)O
5. O=C(NCCC1CC1)c1ccc(N2CCN(C(=S)c3ccccc3C(F)(F)F)CC2)nn1
6. Cc1c(F)cccc1C(=O)Nc1ccc(C(=O)N2CCCC(=O)c3sccc32)cc1

["51 to 52 °C", "178 to 180 °C", "185 to 188 °C", "146 to 148 °C", "117 to 120 °C", "200 to 202 °C"]
